Value source: paper PMC7823652

# ASSAYED TARGET: UniProt O15527
# Sequence (O15527 whole entry): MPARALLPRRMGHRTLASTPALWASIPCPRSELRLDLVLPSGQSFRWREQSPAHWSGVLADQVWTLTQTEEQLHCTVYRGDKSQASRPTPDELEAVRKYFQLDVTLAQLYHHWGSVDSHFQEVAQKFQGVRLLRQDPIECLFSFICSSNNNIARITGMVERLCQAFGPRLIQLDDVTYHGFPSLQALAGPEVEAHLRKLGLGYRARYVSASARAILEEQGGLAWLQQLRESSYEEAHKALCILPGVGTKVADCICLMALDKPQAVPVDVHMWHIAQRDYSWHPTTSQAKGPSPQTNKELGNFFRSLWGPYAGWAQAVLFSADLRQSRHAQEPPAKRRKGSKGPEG
QUANTITY: IC50
Give the figure together with its unit, number first.

Asked: Look at this molecule and give its reported IC50. "O=C(Nc1ccc(I)cc1)N1CCC(n2c(=O)[nH]c3c(Br)cccc32)CC1"
Given back: 0.142 µM

====

Assignment: determine reported CC50 at 24 h for the given molecules.
# ASSAY PROCEDURE: Cell viability assay (Resazurin), uninfected U87 cells
# Assay type: cell-based, Human
# MEASUREMENT PARAMETERS: human; uninfected U87, 24 h; read-out: Viability CC50 [µM] (95%-CI)

Asked: Report CC50 at 24 h for O=C(Nc1ccc(I)cc1)N1CCC(n2c(=O)[nH]c3cc(C(F)(F)F)ccc32)CC1 [TH5264] please.
Given back: > 50 µM

Asked: # CC50 at 24 h lookup, item CCOC(=O)c1cnn(-c2cccc3c2[nH]c(=O)n3C2CCN(C(=O)Nc3ccc(I)cc3)CC2)c1 [TH6744]
Given back: > 50 µM

Asked: Which CC50 at 24 h value is on record for O=C(Nc1ccc(I)cc1)N1CCC(n2c(=O)[nH]c3cc(Cl)ccc32)CC1 [TH3289] ?
Given back: > 50 µM
